- protocol.description: Metabolic stability in human hepatocytes assessed as half life at 2 uM measured upto 120 min by LC-MS/MS analysis
- Type: ADME, cell-based, Hepatocyte
recorded.endpoint: half-life at 2 µM (min)
Your answer should be a plain number; it is taken to be in min.

Entry under review: COc1ccc(-c2ccc3cc(OCCCCCC(=O)NO)ccc3n2)cc1 . Reported half-life at 2 µM?
45.7

###

- system.name: Histone deacetylase 9 (Homo sapiens)
- Sequence (Q9UKV0 whole entry): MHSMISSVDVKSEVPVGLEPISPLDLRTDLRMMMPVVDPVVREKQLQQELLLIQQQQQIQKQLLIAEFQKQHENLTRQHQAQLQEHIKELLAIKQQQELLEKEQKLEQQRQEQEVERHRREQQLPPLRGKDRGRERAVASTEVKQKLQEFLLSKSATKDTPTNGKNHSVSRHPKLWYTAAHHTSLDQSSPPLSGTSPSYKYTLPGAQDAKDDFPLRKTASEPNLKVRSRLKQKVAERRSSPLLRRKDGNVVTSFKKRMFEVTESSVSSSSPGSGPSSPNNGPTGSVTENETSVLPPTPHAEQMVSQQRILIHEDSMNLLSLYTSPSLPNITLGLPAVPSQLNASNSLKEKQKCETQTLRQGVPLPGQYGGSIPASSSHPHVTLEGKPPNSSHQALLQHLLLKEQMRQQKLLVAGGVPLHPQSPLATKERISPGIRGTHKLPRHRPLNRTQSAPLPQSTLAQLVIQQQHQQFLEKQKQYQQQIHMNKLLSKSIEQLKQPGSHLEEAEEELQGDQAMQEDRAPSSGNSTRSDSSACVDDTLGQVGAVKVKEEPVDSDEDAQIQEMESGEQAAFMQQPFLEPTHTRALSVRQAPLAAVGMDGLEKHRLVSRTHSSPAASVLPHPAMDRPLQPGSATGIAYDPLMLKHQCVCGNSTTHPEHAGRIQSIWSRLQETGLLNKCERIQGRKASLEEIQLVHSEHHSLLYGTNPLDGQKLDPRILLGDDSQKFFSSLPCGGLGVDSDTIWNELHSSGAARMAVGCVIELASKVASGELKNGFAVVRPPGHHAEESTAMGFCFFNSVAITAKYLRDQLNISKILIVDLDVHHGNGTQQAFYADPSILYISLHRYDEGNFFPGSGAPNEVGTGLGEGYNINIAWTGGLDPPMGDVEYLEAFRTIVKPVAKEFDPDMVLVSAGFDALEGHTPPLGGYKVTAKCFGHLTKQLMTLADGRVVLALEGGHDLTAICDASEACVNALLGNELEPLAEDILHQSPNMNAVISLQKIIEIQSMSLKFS
- protocol.description: Inhibition of His-tagged recombinant human HDAC9 by fluorogenic assay
pIC50: −log10 of the molar value.
recorded.endpoint: pIC50

Consider the molecule shown here: COc1ccc(-c2ccc3cc(OCCCCCC(=O)NO)ccc3n2)cc1 What is its recorded pIC50?
< 7.00

###

- system.name: Polyamine deacetylase HDAC10 (Homo sapiens)
- Sequence (Q969S8 whole entry, the tested form may be a part): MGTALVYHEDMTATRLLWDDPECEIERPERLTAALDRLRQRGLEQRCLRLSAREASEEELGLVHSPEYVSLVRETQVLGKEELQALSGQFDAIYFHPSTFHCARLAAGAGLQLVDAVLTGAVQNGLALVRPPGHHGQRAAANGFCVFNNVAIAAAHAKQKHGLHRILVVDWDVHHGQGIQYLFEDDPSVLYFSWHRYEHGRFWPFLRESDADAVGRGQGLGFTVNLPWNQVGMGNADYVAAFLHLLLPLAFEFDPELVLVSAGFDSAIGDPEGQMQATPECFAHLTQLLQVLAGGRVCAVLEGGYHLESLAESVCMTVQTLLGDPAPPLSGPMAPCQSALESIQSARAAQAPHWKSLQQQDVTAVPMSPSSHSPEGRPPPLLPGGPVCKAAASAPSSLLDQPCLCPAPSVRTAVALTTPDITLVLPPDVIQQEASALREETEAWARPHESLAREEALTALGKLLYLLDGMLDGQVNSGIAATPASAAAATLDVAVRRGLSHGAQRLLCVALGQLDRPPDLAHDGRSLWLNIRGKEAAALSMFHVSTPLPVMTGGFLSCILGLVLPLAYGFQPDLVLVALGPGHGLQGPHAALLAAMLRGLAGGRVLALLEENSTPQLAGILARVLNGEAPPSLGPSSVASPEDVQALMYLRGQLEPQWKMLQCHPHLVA
- protocol.description: Inhibition of N-terminal FLAG-tagged recombinant human HDAC10 (2 to 631 residues) extracted from baculovirus infected Sf9 cells by fluorogenic assay
recorded.endpoint: pIC50
// scale note: pIC50 = -log10(conc_M); give the bare number

What value of pIC50 has been reported for the following compound? COc1ccc(-c2ccc3cc(OCCCCCC(=O)NO)ccc3n2)cc1
7.06

FYI, the data here is from ChEMBL document CHEMBL6121021.
